Tested on: MCF-7 cells
Conditions: human, 72 hours, 10 μM
Residues, ends and D or L forms follow the SMILES beside them.
Outcome Measure: MTS cell viability, Percent of Control Activity

INSERT INTO assay_data (molecule, val) VALUES
  ('CC[C@H](C)[C@H](NC(=O)[C@H](C)NC(=O)[C@H](CCCNC(=N)N)NC(=O)[C@H](C)NC(=O)[C@@H](NC(=O)[C@H](CCCNC(=N)N)NC(=O)[C@H](CCCNC(=N)N)NC(=O)[C@@H](NC(=O)[C@H](C)NC(=O)[C@H](CC(C)C)NC(=O)[C@@H](N)CCSC)C(C)C)[C@@H](C)O)C(=O)NCC(=O)O [compound 2] (H-MLAVRRTARAIG-OH; N-terminus and C-terminus assumed)', '39%');

====

Tested on: C2C12 cells
Assay: Cell Proliferation in C2C12 Cells (Cyquant DNA dye)
Type: cell-based, mouse
Conditions: peptides 10 μM, 72 hours with readdition every 24 hours, relative to 0.1% DMSO control
Non-standard residues stand in square brackets, D forms with d. No end group written: not given here.
Outcome Measure: Cell proliferation, Percent of Control (%)

INSERT INTO measurements (substance, val) VALUES
  ('16 (PGS[dA]ILTNPVLGWVWV) [compound 16]', 100.3),
  ('17 (GS[dA]ILTNPVLGWVWV) [compound 17]', 110.0),
  ('11 (RLPGSAILTNPVL[dA]WVWV) [compound 11]', 98.1),
  ('15 (LPGS[dA]ILTNPVLGWVWV) [compound 15]', 115.1),
  ('18 (S[dA]ILTNPVLGWVWV) [compound 18]', 101.7),
  ('14 (MRLPGPAILTNPVLGWVWV) [compound 14]', 93.2);

====

Assay: Stability in Mouse Plasma
Assay type: in vitro ADME
Settings: pooled mouse plasma, 37° C., peptides 100 DM, 15 min
Non-standard residues stand in square brackets, D forms with d. Residues, ends and D or L forms follow the SMILES beside them.
Consider the following compounds and their measured remaining at 0.25 h, 100 DM readings.
Outcome Measure: remaining at 0.25 h, 100 DM (%)

INSERT INTO results (compound, outcome_measure, val) VALUES
  ('CC[C@H](C)[C@H](NC(=O)[C@H](C)NC(=O)[C@H](CO)NC(=O)CNC(=O)[C@@H]1CCCN1C(=O)[C@H](CC(C)C)NC(=O)[C@H](CCCNC(=N)N)NC(=O)[C@@H](N)CCSC)C(=O)N[C@@H](CC(C)C)C(=O)N[C@H](C(=O)N[C@@H](CC(N)=O)C(=O)N1CCC[C@H]1C(=O)N[C@H](C(=O)N[C@@H](CC(C)C)C(=O)NCC(=O)N[C@@H](Cc1c[nH]c2ccccc12)C(=O)N[C@H](C(=O)N[C@@H](Cc1c[nH]c2ccccc12)C(=O)N[C@H](C(=O)O)C(C)C)C(C)C)C(C)C)[C@@H](C)O [compound 7] (H-MRLPGSAILTNPVLGWVWV-OH)', 'remaining at 0.25 h, 100 DM', 70.9),
  ('CC[C@H](C)[C@H](NC(=O)[C@H](C)NC(=O)[C@H](CO)NC(=O)CNC(=O)[C@@H]1CCCN1C(=O)[C@H](CC(C)C)NC(=O)[C@@H](N)CCCNC(=N)N)C(=O)N[C@@H](CC(C)C)C(=O)N[C@H](C(=O)N[C@@H](CC(N)=O)C(=O)N1CCC[C@H]1C(=O)N[C@H](C(=O)N[C@@H](CC(C)C)C(=O)NCC(=O)N[C@@H](Cc1c[nH]c2ccccc12)C(=O)N[C@H](C(=O)N[C@@H](Cc1c[nH]c2ccccc12)C(=O)N[C@H](C(=O)O)C(C)C)C(C)C)C(C)C)[C@@H](C)O [compound 8] (H-RLPGSAILTNPVLGWVWV-OH)', 'remaining at 0.25 h, 100 DM', 84.9),
  ('CC[C@H](C)[C@H](NC(=O)[C@@H](C)NC(=O)[C@H](CO)NC(=O)CNC(=O)[C@@H]1CCCN1C(=O)[C@H](CC(C)C)NC(=O)[C@@H](N)CCCNC(=N)N)C(=O)N[C@@H](CC(C)C)C(=O)N[C@H](C(=O)N[C@@H](CC(N)=O)C(=O)N1CCC[C@H]1C(=O)N[C@H](C(=O)N[C@@H](CC(C)C)C(=O)NCC(=O)N[C@@H](Cc1c[nH]c2ccccc12)C(=O)N[C@H](C(=O)O)C(C)C)C(C)C)[C@@H](C)O [compound 10] (H-RLPGS[dA]ILTNPVLGWV-OH)', 'remaining at 0.25 h, 100 DM', 76.5),
  ('CC[C@H](C)[C@H](NC(=O)[C@@H](C)NC(=O)[C@H](CO)NC(=O)CNC(=O)[C@@H]1CCCN1C(=O)[C@H](CC(C)C)NC(=O)[C@@H](N)CCCNC(=N)N)C(=O)N[C@@H](CC(C)C)C(=O)N[C@H](C(=O)N[C@@H](CC(N)=O)C(=O)N1CCC[C@H]1C(=O)N[C@H](C(=O)N[C@@H](CC(C)C)C(=O)NCC(=O)N[C@@H](Cc1c[nH]c2ccccc12)C(=O)N[C@H](C(=O)N[C@@H](Cc1c[nH]c2ccccc12)C(=O)N[C@H](C(=O)O)C(C)C)C(C)C)C(C)C)[C@@H](C)O [compound 9] (H-RLPGS[dA]ILTNPVLGWVWV-OH)', 'remaining at 0.25 h, 100 DM', 90.5);

These measurements were taken from patent US20220324912A1.
